Each recorded value in this set is attributed to the kinase profiling compilation of Christmann-Franck et al. (2016).

- Target System: UniProt:P17948
- Sequence (P17948 whole entry, looked up): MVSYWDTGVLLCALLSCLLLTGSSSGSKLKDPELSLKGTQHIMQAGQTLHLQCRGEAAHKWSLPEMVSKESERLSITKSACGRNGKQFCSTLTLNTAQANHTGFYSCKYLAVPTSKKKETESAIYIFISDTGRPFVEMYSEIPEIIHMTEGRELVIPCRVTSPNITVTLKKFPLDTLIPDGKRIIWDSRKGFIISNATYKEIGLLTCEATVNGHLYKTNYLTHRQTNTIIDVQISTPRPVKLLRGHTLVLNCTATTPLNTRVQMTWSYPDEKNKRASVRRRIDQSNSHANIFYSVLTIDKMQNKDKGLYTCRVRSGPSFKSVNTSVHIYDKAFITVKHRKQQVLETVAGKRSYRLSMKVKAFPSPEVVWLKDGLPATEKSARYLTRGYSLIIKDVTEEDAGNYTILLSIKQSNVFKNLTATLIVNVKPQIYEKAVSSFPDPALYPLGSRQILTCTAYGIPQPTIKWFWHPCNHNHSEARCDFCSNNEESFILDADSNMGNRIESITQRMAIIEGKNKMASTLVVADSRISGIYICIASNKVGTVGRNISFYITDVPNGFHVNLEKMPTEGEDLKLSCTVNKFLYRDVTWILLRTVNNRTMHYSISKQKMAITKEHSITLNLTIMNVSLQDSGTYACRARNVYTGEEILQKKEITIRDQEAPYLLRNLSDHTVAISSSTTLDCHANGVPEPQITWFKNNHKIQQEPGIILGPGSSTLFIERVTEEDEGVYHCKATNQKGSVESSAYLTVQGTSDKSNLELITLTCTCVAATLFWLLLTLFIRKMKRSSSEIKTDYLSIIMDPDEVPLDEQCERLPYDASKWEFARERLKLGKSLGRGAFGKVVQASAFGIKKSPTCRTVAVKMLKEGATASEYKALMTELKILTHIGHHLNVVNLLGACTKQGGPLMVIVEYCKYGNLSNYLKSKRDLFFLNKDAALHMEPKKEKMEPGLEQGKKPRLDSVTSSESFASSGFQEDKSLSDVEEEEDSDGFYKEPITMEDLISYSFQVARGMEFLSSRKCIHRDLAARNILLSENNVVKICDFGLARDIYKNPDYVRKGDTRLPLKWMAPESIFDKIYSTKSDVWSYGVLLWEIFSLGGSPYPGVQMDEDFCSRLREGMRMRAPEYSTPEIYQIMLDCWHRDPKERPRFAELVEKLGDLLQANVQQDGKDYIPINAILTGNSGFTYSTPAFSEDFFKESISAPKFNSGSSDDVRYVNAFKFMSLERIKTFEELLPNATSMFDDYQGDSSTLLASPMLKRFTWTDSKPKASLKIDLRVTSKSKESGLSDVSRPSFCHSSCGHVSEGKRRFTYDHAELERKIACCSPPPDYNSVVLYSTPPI
- Assay Method Text: KINOMEscan competition binding
- Reported Conditions: compound 10.0 µM
Quantity: kinase still bound, per cent of control (%)

> print(dat)
                              smiles.string                                 quantity  endpoint.value
1  CCN1CCN(Cc2ccc(NC(=O)c3ccc(C)c(/C=C/c4cnc(Nc5cc(N6CCNCC6)nc(C)n5)cn4)c3)cc2C(F)(F)F)CC1  kinase still bound, per cent of control              27
2  CCOc1cc(N2CCC(N3CCCCC3)CC2)ccc1Nc1nc(Nc2ccccc2S(=O)(=O)C(C)C)c2cn[nH]c2n1  kinase still bound, per cent of control             100
3  CCN1CCN(Cc2ccc(NC(=O)c3ccc(C)c(Oc4ccnc5[nH]ccc45)c3)cc2C(F)(F)F)CC1  kinase still bound, per cent of control             1.6
4  COc1cc(N2CCC(N3CCN(C)CC3)CC2)ccc1Nc1ncc(Cl)c(Nc2ccccc2S(=O)(=O)C(C)C)n1  kinase still bound, per cent of control             2.8

----------
kinase still bound, per cent of control values by entry
- Target System: RIPK1 (human)
- Assay Method Text: KINOMEscan competition binding
- Reported Conditions: compound 10.0 µM
Quantity: kinase still bound, per cent of control (%)

> print(dat)
                              smiles.string  target.system                                 quantity  endpoint.value
1  CCN1CCN(Cc2ccc(NC(=O)c3ccc(C)c(Oc4ccnc5[nH]ccc45)c3)cc2C(F)(F)F)CC1  RIPK1 (human)  kinase still bound, per cent of control               0
2  CCOc1cc(N2CCC(N3CCCCC3)CC2)ccc1Nc1nc(Nc2ccccc2S(=O)(=O)C(C)C)c2cn[nH]c2n1  RIPK1 (human)  kinase still bound, per cent of control             100
3  CCN1CCN(Cc2ccc(NC(=O)c3ccc(C)c(/C=C/c4cnc(Nc5cc(N6CCNCC6)nc(C)n5)cn4)c3)cc2C(F)(F)F)CC1  RIPK1 (human)  kinase still bound, per cent of control             2.7
4  COc1cc(N2CCC(N3CCN(C)CC3)CC2)ccc1Nc1ncc(Cl)c(Nc2ccccc2S(=O)(=O)C(C)C)n1  RIPK1 (human)  kinase still bound, per cent of control              18

----------
kinase still bound, per cent of control values by entry
- Target System: MAP4K2 (human) (UniProt Q12851)
- Sequence (Q12851 whole entry, looked up): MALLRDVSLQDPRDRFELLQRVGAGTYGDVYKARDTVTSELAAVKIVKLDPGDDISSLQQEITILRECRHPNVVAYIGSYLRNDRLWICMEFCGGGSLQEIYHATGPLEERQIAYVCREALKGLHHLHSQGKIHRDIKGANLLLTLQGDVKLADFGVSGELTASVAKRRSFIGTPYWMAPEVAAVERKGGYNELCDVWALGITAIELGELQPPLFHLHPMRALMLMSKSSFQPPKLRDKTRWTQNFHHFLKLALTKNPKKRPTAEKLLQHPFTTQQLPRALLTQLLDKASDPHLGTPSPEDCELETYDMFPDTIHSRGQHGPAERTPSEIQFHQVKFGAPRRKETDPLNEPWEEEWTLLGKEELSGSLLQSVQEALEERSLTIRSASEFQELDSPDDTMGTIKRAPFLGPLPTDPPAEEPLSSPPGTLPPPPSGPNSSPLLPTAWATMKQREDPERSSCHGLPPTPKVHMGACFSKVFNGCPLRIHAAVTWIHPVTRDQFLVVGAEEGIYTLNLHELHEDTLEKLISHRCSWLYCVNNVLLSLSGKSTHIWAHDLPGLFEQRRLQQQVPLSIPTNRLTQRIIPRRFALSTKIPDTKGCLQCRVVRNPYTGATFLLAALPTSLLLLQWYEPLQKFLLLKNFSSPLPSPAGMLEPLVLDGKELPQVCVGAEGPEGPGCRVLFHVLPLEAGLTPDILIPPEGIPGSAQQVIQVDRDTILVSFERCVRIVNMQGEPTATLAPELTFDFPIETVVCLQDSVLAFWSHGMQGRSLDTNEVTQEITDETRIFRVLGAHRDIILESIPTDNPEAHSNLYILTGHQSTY
- Assay Method Text: KINOMEscan competition binding
- Reported Conditions: compound 10.0 µM
Quantity: kinase still bound, per cent of control

> print(dat)
                              smiles.string  endpoint.value
1  CCN1CCN(Cc2ccc(NC(=O)c3ccc(C)c(/C=C/c4cnc(Nc5cc(N6CCNCC6)nc(C)n5)cn4)c3)cc2C(F)(F)F)CC1            0.1%
2  COc1cc(N2CCC(N3CCN(C)CC3)CC2)ccc1Nc1ncc(Cl)c(Nc2ccccc2S(=O)(=O)C(C)C)n1            9.4%
3  CCN1CCN(Cc2ccc(NC(=O)c3ccc(C)c(Oc4ccnc5[nH]ccc45)c3)cc2C(F)(F)F)CC1            0.3%
4  CCOc1cc(N2CCC(N3CCCCC3)CC2)ccc1Nc1nc(Nc2ccccc2S(=O)(=O)C(C)C)c2cn[nH]c2n1             97%

----------
- Target System: EGFR (human) (UniProt P00533)
- Assay Method Text: KINOMEscan competition binding
- Reported Conditions: compound 10.0 µM
Quantity: kinase still bound, per cent of control (%)

> print(dat)
                              smiles.string                                 quantity  endpoint.value
1  CCN1CCN(Cc2ccc(NC(=O)c3ccc(C)c(/C=C/c4cnc(Nc5cc(N6CCNCC6)nc(C)n5)cn4)c3)cc2C(F)(F)F)CC1  kinase still bound, per cent of control              12
2  CCOc1cc(N2CCC(N3CCCCC3)CC2)ccc1Nc1nc(Nc2ccccc2S(=O)(=O)C(C)C)c2cn[nH]c2n1  kinase still bound, per cent of control             4.1
3  COc1cc(N2CCC(N3CCN(C)CC3)CC2)ccc1Nc1ncc(Cl)c(Nc2ccccc2S(=O)(=O)C(C)C)n1  kinase still bound, per cent of control             0.1
4  CCN1CCN(Cc2ccc(NC(=O)c3ccc(C)c(Oc4ccnc5[nH]ccc45)c3)cc2C(F)(F)F)CC1  kinase still bound, per cent of control             5.6

----------
kinase still bound, per cent of control values by entry
- Target System: NLK (human) (UniProt Q9UBE8)
- Sequence (Q9UBE8 whole entry, looked up): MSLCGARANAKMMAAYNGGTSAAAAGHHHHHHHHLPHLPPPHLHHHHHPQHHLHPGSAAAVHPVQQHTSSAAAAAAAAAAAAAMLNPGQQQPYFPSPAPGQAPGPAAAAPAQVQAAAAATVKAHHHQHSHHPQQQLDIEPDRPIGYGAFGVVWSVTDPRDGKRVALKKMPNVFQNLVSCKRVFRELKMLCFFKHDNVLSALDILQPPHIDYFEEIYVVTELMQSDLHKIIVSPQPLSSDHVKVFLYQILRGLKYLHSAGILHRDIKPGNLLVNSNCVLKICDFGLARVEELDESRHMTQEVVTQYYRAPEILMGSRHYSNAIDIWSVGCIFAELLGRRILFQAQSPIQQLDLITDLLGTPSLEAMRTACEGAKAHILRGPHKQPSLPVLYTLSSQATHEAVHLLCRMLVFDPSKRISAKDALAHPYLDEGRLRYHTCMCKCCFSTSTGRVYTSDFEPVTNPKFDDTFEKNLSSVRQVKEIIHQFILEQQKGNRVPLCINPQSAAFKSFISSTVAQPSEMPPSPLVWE
- Assay Method Text: KINOMEscan competition binding
- Reported Conditions: compound 10.0 µM
Quantity: kinase still bound, per cent of control (%)

> print(dat)
                              smiles.string  unit.spec  endpoint.value
1  CCN1CCN(Cc2ccc(NC(=O)c3ccc(C)c(Oc4ccnc5[nH]ccc45)c3)cc2C(F)(F)F)CC1          %              14
2  CCOc1cc(N2CCC(N3CCCCC3)CC2)ccc1Nc1nc(Nc2ccccc2S(=O)(=O)C(C)C)c2cn[nH]c2n1          %              97
3  CCN1CCN(Cc2ccc(NC(=O)c3ccc(C)c(/C=C/c4cnc(Nc5cc(N6CCNCC6)nc(C)n5)cn4)c3)cc2C(F)(F)F)CC1          %              65
4  COc1cc(N2CCC(N3CCN(C)CC3)CC2)ccc1Nc1ncc(Cl)c(Nc2ccccc2S(=O)(=O)C(C)C)n1          %              40

----------
- Test system: EGFR (human), P00533 [P753S; 747-752 del]
- Assay Method Text: KINOMEscan competition binding
- Reported Conditions: compound 10.0 µM
Quantity: kinase still bound, per cent of control (%)

> print(dat)
                              smiles.string                                 quantity  unit.spec  endpoint.value
1  COc1cc(N2CCC(N3CCN(C)CC3)CC2)ccc1Nc1ncc(Cl)c(Nc2ccccc2S(=O)(=O)C(C)C)n1  kinase still bound, per cent of control          %            0.95
2  CCOc1cc(N2CCC(N3CCCCC3)CC2)ccc1Nc1nc(Nc2ccccc2S(=O)(=O)C(C)C)c2cn[nH]c2n1  kinase still bound, per cent of control          %              40
3  CCN1CCN(Cc2ccc(NC(=O)c3ccc(C)c(Oc4ccnc5[nH]ccc45)c3)cc2C(F)(F)F)CC1  kinase still bound, per cent of control          %             1.2
4  CCN1CCN(Cc2ccc(NC(=O)c3ccc(C)c(/C=C/c4cnc(Nc5cc(N6CCNCC6)nc(C)n5)cn4)c3)cc2C(F)(F)F)CC1  kinase still bound, per cent of control          %             0.2

----------
kinase still bound, per cent of control values by entry
- Target System: CDK2 (human)
- Assay Method Text: KINOMEscan competition binding
- Reported Conditions: compound 10.0 µM
Quantity: kinase still bound, per cent of control (%)

> print(dat)
                              smiles.string  endpoint.value
1  COc1cc(N2CCC(N3CCN(C)CC3)CC2)ccc1Nc1ncc(Cl)c(Nc2ccccc2S(=O)(=O)C(C)C)n1              24
2  CCOc1cc(N2CCC(N3CCCCC3)CC2)ccc1Nc1nc(Nc2ccccc2S(=O)(=O)C(C)C)c2cn[nH]c2n1             100
3  CCN1CCN(Cc2ccc(NC(=O)c3ccc(C)c(Oc4ccnc5[nH]ccc45)c3)cc2C(F)(F)F)CC1              11
4  CCN1CCN(Cc2ccc(NC(=O)c3ccc(C)c(/C=C/c4cnc(Nc5cc(N6CCNCC6)nc(C)n5)cn4)c3)cc2C(F)(F)F)CC1             100

----------
- Target System: UniProtKB P29320
- Sequence (P29320 whole entry, looked up): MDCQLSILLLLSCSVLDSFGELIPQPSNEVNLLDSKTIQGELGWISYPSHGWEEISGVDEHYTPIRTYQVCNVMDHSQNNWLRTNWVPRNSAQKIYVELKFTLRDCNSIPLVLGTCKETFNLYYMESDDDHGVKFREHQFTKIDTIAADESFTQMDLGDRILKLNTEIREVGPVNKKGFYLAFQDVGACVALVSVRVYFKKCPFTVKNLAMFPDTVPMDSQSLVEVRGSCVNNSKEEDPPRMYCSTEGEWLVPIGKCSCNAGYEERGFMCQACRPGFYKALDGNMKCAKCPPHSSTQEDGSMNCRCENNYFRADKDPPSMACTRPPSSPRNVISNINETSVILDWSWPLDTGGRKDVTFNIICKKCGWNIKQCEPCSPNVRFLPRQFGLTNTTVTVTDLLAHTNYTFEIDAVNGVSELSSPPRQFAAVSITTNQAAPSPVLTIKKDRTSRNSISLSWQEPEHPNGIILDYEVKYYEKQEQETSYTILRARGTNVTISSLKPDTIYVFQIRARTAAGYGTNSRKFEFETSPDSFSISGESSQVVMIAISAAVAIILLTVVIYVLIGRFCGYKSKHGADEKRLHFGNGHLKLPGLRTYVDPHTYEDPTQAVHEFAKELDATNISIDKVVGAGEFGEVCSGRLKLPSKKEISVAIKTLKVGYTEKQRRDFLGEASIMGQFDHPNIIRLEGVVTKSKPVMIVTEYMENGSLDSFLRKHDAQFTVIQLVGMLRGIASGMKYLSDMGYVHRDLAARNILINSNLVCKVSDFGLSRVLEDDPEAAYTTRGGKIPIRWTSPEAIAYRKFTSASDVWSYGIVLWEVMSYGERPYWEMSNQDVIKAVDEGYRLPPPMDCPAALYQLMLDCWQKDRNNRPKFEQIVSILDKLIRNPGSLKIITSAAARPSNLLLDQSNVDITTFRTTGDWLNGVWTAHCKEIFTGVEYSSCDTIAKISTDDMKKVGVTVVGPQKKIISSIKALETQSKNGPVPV
- Assay Method Text: KINOMEscan competition binding
- Reported Conditions: compound 10.0 µM
Quantity: kinase still bound, per cent of control (%)

> print(dat)
                              smiles.string     target.system  unit.spec  endpoint.value
1  CCOc1cc(N2CCC(N3CCCCC3)CC2)ccc1Nc1nc(Nc2ccccc2S(=O)(=O)C(C)C)c2cn[nH]c2n1  UniProtKB P29320          %             100
2  COc1cc(N2CCC(N3CCN(C)CC3)CC2)ccc1Nc1ncc(Cl)c(Nc2ccccc2S(=O)(=O)C(C)C)n1  UniProtKB P29320          %              40
3  CCN1CCN(Cc2ccc(NC(=O)c3ccc(C)c(Oc4ccnc5[nH]ccc45)c3)cc2C(F)(F)F)CC1  UniProtKB P29320          %             3.4
4  CCN1CCN(Cc2ccc(NC(=O)c3ccc(C)c(/C=C/c4cnc(Nc5cc(N6CCNCC6)nc(C)n5)cn4)c3)cc2C(F)(F)F)CC1  UniProtKB P29320          %             4.4
